- PROTOCOL DETAILS: D90 particle size of atovaquone by Malvern Mastersizer
- Format: physicochemical
- TEST CONTEXT: Run 4, stir time 4 min
READOUT NAME: D90 particle size (microns)
Supply the numeric figure in microns, leaving out any unit text.

O=C1C(O)=C([C@H]2CC[C@H](c3ccc(Cl)cc3)CC2)C(=O)c2ccccc21 [Example 1] | 5.284
O=C1C(O)=C([C@H]2CC[C@H](c3ccc(Cl)cc3)CC2)C(=O)c2ccccc21 [Example 2] | 6.569
O=C1C(O)=C([C@H]2CC[C@H](c3ccc(Cl)cc3)CC2)C(=O)c2ccccc21 [Example 4] | 4.814

Then there is this compound:
Reported D90 particle size of O=C1C(O)=C([C@H]2CC[C@H](c3ccc(Cl)cc3)CC2)C(=O)c2ccccc21 [Example 3] : 4.286
